Measured values drawn from BindingDB's records for doi:10.7270/Q2Q52N1X for this set.

# tested on: Solute carrier family 12 member 5 (Homo sapiens, UniProt Q9H2X9)
# Sequence (Q9H2X9 whole entry): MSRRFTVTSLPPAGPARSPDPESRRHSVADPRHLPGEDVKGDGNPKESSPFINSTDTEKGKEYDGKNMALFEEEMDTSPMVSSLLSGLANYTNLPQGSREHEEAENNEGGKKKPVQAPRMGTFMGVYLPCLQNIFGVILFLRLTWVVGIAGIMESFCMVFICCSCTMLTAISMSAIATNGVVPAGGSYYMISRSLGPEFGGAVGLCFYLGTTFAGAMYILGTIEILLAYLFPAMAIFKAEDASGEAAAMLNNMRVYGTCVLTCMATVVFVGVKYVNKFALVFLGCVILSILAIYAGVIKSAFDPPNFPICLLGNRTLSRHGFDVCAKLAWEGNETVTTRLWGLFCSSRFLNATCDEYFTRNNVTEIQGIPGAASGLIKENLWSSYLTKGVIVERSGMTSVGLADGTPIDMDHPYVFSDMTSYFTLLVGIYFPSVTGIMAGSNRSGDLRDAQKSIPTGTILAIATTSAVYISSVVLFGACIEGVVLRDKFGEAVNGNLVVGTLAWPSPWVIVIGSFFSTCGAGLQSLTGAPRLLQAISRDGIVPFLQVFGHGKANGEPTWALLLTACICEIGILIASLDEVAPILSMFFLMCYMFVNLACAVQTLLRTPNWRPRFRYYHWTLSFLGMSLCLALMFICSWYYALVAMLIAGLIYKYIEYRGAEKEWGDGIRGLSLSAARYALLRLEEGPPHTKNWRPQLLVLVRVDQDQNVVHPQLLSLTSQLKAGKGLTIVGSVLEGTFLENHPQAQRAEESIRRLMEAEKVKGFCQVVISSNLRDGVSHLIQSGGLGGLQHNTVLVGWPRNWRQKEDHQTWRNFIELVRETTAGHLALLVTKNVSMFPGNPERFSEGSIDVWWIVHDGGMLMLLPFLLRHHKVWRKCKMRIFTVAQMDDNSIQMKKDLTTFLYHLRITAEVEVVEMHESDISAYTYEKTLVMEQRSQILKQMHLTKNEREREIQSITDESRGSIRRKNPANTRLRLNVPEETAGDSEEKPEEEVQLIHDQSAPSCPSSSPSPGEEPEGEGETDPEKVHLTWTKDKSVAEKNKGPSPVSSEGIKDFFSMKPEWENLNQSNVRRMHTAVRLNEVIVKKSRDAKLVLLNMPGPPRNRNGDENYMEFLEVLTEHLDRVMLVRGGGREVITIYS
# protocol text: concentration-response of KCC2 transport modulators – cell-based, HEK293 KCC2, FluoZin-2 fluorescence, dose response (AID 1736)
pEC50: −log10 of the molar value.
Classification field: y = pEC50 at or over 5; n = pEC50 under 5.

| molecule | tested on | answer label |
| --- | --- | --- |
| O=C(CSc1nnc(-c2ccc(F)cc2)o1)N1CCN(C(=O)c2ccco2)CC1 | Solute carrier family 12 member 5 (Homo sapiens, UniProt Q9H2X9) | n |
| CC1CCCCN1C(=O)CSc1ccc(-c2ccc(F)cc2)nn1 (configuration not stated) | Solute carrier family 12 member 5 (Homo sapiens, UniProt Q9H2X9) | n |
| Cc1cccc(Nc2nnc(SCC(=O)c3ccc(Br)s3)s2)c1C | Solute carrier family 12 member 5 (Homo sapiens, UniProt Q9H2X9) | y |
| CC1Cc2ccccc2N1C(=O)c1ccc(N2CCCC2)c([N+](=O)[O-])c1 (configuration not stated) | Solute carrier family 12 member 5 (Homo sapiens, UniProt Q9H2X9) | y |
| CCc1ccc(Nc2nnc(SCC(=O)Nc3sccc3C(N)=O)s2)cc1 | Solute carrier family 12 member 5 (Homo sapiens, UniProt Q9H2X9) | y |
| Sc1nnc(CNc2cccc(Cl)c2)o1 | Solute carrier family 12 member 5 (Homo sapiens, UniProt Q9H2X9) | y |
| O=C(NCC1CCCN(C(=O)c2cccnc2)C1)c1ccc(-c2ccccc2)cc1 (configuration not stated) | Solute carrier family 12 member 5 (Homo sapiens, UniProt Q9H2X9) | y |
| Cn1c(C(=O)NCCN2CCN(c3ccccc3F)CC2)cc2c(=O)n(C)c3ccccc3c21 [MLS000118132] | Solute carrier family 12 member 5 (Homo sapiens, UniProt Q9H2X9) | y |
| Cc1ccc(Cn2c(SCC(=O)Nc3cc(C)on3)nc3ccccc3c2=O)cc1 | Solute carrier family 12 member 5 (Homo sapiens, UniProt Q9H2X9) | n |
| COc1cc(C=NNC(=O)CN(Cc2ccccc2)S(=O)(=O)c2ccc3c(c2)OCCO3)ccc1O | Solute carrier family 12 member 5 (Homo sapiens, UniProt Q9H2X9) | y |

Is reported pEC50 greater than or equal to 5 here: Cc1nn(-c2ccc(F)cc2)c(C)c1NS(=O)(=O)c1ccc(Cl)cc1 n

Now try O=C(NNc1nc(-c2ccccc2)cs1)c1cccs1 [MLS000858987] . y

Now try Sc1nnc(C2(c3ccccc3)CCCC2)o1 . y
